test system: WSU-DLCL2; assay: CellTiter-Glo proliferation assay, CD48 MCL-1 and BCL-2 ADCs (Example 4); settings: Homo sapiens, WSUDLCL2, 120 h, read-out: WSU-DLCL2 IC50 (nM)
Reported IC50 values for the following molecules.
metric: IC50 (nM)

INSERT INTO measurements (molecule, metric, recordedvalue) VALUES
  ('COc1ccccc1-c1nccc(COc2ccccc2C[C@@H](Oc2ncnc3sc(-c4ccc(F)cc4)c(-c4ccc(OCCN5CCN(C)CC5)c(Cl)c4C)c23)C(=O)O)n1 [P1]', 'IC50', 41.1),
  ('Cc1c(N(C(=O)c2cc(-c3cc4c(cc3C(=O)N3Cc5ccccc5C[C@H]3C)CN(C(=O)Cc3ccc(OCCN5CCOCC5)cc3)CC4)n(C)c2C)c2ccc(O)cc2)cc(C#N)n1C', 'IC50', 4.17),
  ('Cc1c(N(C(=O)c2cc(-c3cc(Cl)ccc3C(=O)N3Cc4ccccc4C[C@H]3CCCN(C)C)n(C)c2C)c2ccc(O)cc2)cc(C#N)n1C [P2]', 'IC50', 3.77),
  ('Cc1c(C(=O)N(c2ccc(O)cc2)c2cnn(C(F)F)c2)cc(-c2cc3c(cc2C(=O)N2Cc4ccccc4C[C@H]2C)CN(C(=O)Cc2ccc(OCCN4CCOCC4)cc2)CC3)n1C', 'IC50', 5.41);
